system: U2OS; experiment: Multiplex assay against U2OS; type: toxicity, cell-based; details: human, 24 h, 1 µM, compound concentration 1 uM, replicate 1
Reported Population Apoptotic (%) by item:

CCCn1c(=O)c2[nH]c(C3CCCC3)nc2n(CCC)c1=O; 83%
CCCN1CCC[C@@H]2Cc3n[nH]cc3C[C@H]21.Cl [QUINPIROLE HYDROCHLORIDE]; 68%
CN1CCN2c3ncccc3Cc3ccccc3C2C1 (stereo not given); 85%

Lab note: need Population Apoptotic (%) for CNC[C@H](O)c1ccc(O)c(O)c1 [EPINEPHRINE] on U2OS, anyone have it?
84%

Lab note: need Population Apoptotic (%) for Cl.Clc1ccc2nsnc2c1NC1=NCCN1 [TIZANIDINE HYDROCHLORIDE] on U2OS, anyone have it?
90%

----------
Reported Population Mitochondria Different-Phenotype (%) by item:
test system: Fibroblast; assay: Multiplex assay against human fibroblast; assay type: toxicity, cell-based; settings: 12 h, 1 µM, compound concentration 1 uM, replicate 2
Numeric only. Scale: %

Answered cases to consult:
COc1cc(NC(=O)CCN2CCC(OC(=O)Nc3ccccc3-c3ccccc3)CC2)c(Cl)cc1CNC[C@H](O)c1ccc(O)c2[nH]c(=O)ccc12; 7
C[C@H](NC(=O)c1c(C(F)F)nn(C)c1Oc1cccc(C(F)(F)F)c1)c1ccc(C(=O)O)cc1; 6
C[C@@H]1C[C@H]2[C@@H]3CCC4=CC(=O)C=C[C@]4(C)[C@@]3(F)[C@@H](O)C[C@]2(C)[C@@]1(O)C(=O)CO; 4

Entry "CC[C@H]1OC(=O)[C@H](C)[C@@H](O[C@H]2C[C@@](C)(OC)[C@@H](O)[C@H](C)O2)[C@H](C)[C@@H](O[C@@H]2O[C@H](C)C[C@H](N(C)C)[C@H]2O)[C@@]2(C)CC(C)=C(O2)[C@H](C)[C@@H](O)[C@]1(C)O" has what Population Mitochondria Different-Phenotype (%)?
6

Entry "C[C@H]1[C@H]2CC[C@H]3[C@@H]4CC=C5C[C@@H](N(C)C)CC[C@]5(C)[C@H]4CC[C@]23CN1C" has what Population Mitochondria Different-Phenotype (%)?
2

Entry "CC1(COc2ccc3c(c2)ncn3-c2ccc3cccc(N4CCC(N)CC4)c3n2)COC1" has what Population Mitochondria Different-Phenotype (%)?
9

Entry "CCCC(CCC)C(=O)O" has what Population Mitochondria Different-Phenotype (%)?
14

Entry "O=C(NCC(=O)N1CC[C@H](N[C@H]2CC[C@@](O)(c3ccc(-c4ncccn4)cn3)CC2)C1)c1cccc(C(F)(F)F)c1" has what Population Mitochondria Different-Phenotype (%)?
7

Entry "Oc1c(CN2CCN(c3ccccn3)CC2)cc(Cl)c2cccnc12" has what Population Mitochondria Different-Phenotype (%)?
6

----------
system: U2OS; assay: Multiplex assay against U2OS; format: toxicity, cell-based; settings: human, 24 h, 1 µM, compound concentration 1 uM, replicate 2
recordedEndpoint: Population Hoechst High Intensity Objects (%)
Numeric only. Scale: %

O=C1COc2nccc(-c3ccccc3F)c2CN1Cc1cc(C(F)(F)F)cc(C(F)(F)F)c1; 4
CC(=O)NCCc1c(Cc2ccccc2)[nH]c2ccccc12; 0
CC1(COc2ccc3c(c2)ncn3-c2ccc3cccc(N4CCC(N)CC4)c3n2)COC1; 10

Entry CSc1ccccc1N1CCN(CCCCCC(=O)NC2CCCc3ccccc32)CC1.Cl (centres undefined) has what Population Hoechst High Intensity Objects (%)?
2

Entry "O=C(O)c1cc2ccccc2c(Cc2c(O)c(C(=O)O)cc3ccccc23)c1O" has what Population Hoechst High Intensity Objects (%)?
0

Entry "N#Cc1c(N)nc(SCc2csc(-c3ccc(Cl)cc3)n2)c(C#N)c1-c1ccc(OCCO)cc1" has what Population Hoechst High Intensity Objects (%)?
0

Entry "CCNC1(C(N)=O)CCN(c2ncnc3c2nc(-c2ccccc2Cl)n3-c2ccc(Cl)cc2)CC1" has what Population Hoechst High Intensity Objects (%)?
4

Entry COc1ccc2c(c1)C(C(=O)N(Cc1ccc(N(C)C)cc1)c1ccc(C(C)C)cc1)CCC2.Cl (centres undefined) has what Population Hoechst High Intensity Objects (%)?
2

Entry CN1CCN2c3ncccc3Cc3ccccc3C2C1 (centres undefined) has what Population Hoechst High Intensity Objects (%)?
3

----------
tested on: Fibroblast; assay: Multiplex assay against human fibroblast; type: toxicity, cell-based; conditions: 24 h, 10 µM, compound concentration 10 uM, replicate 1
recordedEndpoint: Population Hoechst High Intensity Objects (%)
Numeric only. Scale: %

Answered cases to consult:
CN(C)CCCc1cc(C(=O)Nc2ccc(-c3ccncc3)cc2)ccc1O.Cl.Cl; 6
CCCC(CCC)C(=O)O [VALPROIC ACID]; 6

Let's switch to this molecule now.
Entry CCNC1(C(N)=O)CCN(c2ncnc3c2nc(-c2ccccc2Cl)n3-c2ccc(Cl)cc2)CC1 [OTENABANT] has what Population Hoechst High Intensity Objects (%)?
2

----------
system: HEK-293T; test: Multiplex assay against HEK293T; format: toxicity, cell-based; settings: human, 48 h, 1 µM, compound concentration 1 uM, replicate 1
Reported Population Apoptotic (%) by item:
Numeric only. Scale: %

Answered cases to consult:
CCCN1CCC[C@@H]2Cc3n[nH]cc3C[C@H]21.Cl [QUINPIROLE HYDROCHLORIDE]; 21
C[C@H]1[C@H]2CC[C@H]3[C@@H]4CC=C5C[C@@H](N(C)C)CC[C@]5(C)[C@H]4CC[C@]23CN1C [CONESSINE]; 30
O=C(O)c1cc2ccccc2c(Cc2c(O)c(C(=O)O)cc3ccccc23)c1O [PAMOIC ACID]; 18

Let's switch to this molecule now.
Entry "Oc1c(CN2CCN(c3ccccn3)CC2)cc(Cl)c2cccnc12" has what Population Apoptotic (%)?
29

----------
tested on: HEK-293T; assay: Multiplex assay against HEK293T; assay type: toxicity, cell-based; conditions: human, 24 h, 1 µM, compound concentration 1 uM, replicate 1
recordedEndpoint: Population Pyknosed Nuclei (%)
Numeric only. Scale: %

Answered cases to consult:
O=C(O)c1cc2ccccc2c(Cc2c(O)c(C(=O)O)cc3ccccc23)c1O; 12
COc1ccc2c(c1)C(C(=O)N(Cc1ccc(N(C)C)cc1)c1ccc(C(C)C)cc1)CCC2.Cl (stereo not given); 8
Cc1nc2ccc(Oc3ccc(F)cc3)cc2c(=O)n1C[C@H]1CCCN(C(C)C)C1.Cl; 8
CC1(COc2ccc3c(c2)ncn3-c2ccc3cccc(N4CCC(N)CC4)c3n2)COC1; 12

Let's switch to this molecule now.
Lab note: need Population Pyknosed Nuclei (%) for Cl.Clc1ccc2nsnc2c1NC1=NCCN1 [TIZANIDINE HYDROCHLORIDE] on HEK-293T, anyone have it?
8

----------
Reported Population Healthy Nuclei (%) by item:
system: HEK-293T; assay: Multiplex assay against HEK293T; assay type: toxicity, cell-based; conditions: human, 24 h, 10 µM, compound concentration 10 uM, replicate 2
Numeric only. Scale: %

Answered cases to consult:
O=C(NCC(=O)N1CC[C@H](N[C@H]2CC[C@@](O)(c3ccc(-c4ncccn4)cn3)CC2)C1)c1cccc(C(F)(F)F)c1 [PF-4136309]; 80
CN1CCN(c2nc3cc(C(F)(F)F)ccc3n3cccc23)CC1.O=C(O)/C=C\C(=O)O.O=C(O)/C=C\C(=O)O; 78
COc1c(C)cc(NC(=O)c2nn(Cc3ccc(F)cc3)c3c2CN(C(=O)c2ccc[nH]2)C[C@]3(C)C(N)=O)cc1C; 74

Entry O=S(=O)(c1ccccc1)c1cnc2c(N3CCNCC3)cccc2c1 [INTEPIRDINE] has what Population Healthy Nuclei (%)?
82

Entry O=C(O)c1cc2ccccc2c(Cc2c(O)c(C(=O)O)cc3ccccc23)c1O [PAMOIC ACID] has what Population Healthy Nuclei (%)?
79

----------
Reported Population Healthy Nuclei (%) by item:
system: HEK-293T; test: Multiplex assay against HEK293T; type: toxicity, cell-based; details: human, 48 h, 10 µM, compound concentration 10 uM, replicate 1
Numeric only. Scale: %

Answered cases to consult:
O=S(=O)(c1ccccc1)c1cnc2c(N3CCNCC3)cccc2c1 [INTEPIRDINE]; 75
CN(C)CCCc1cc(C(=O)Nc2ccc(-c3ccncc3)cc2)ccc1O.Cl.Cl; 75
COc1cc(C(=O)N(CCCc2ccccc2)Cc2ccc(CC(=O)O)cc2)cc(OC)c1C; 76
COc1cc(NC(=O)CCN2CCC(OC(=O)Nc3ccccc3-c3ccccc3)CC2)c(Cl)cc1CNC[C@H](O)c1ccc(O)c2[nH]c(=O)ccc12; 25
O=C1COc2nccc(-c3ccccc3F)c2CN1Cc1cc(C(F)(F)F)cc(C(F)(F)F)c1; 75

Let's switch to this compound now.
Entry "Cc1ccc(/C(=C\CN2CCCC2)c2ccccn2)cc1" has what Population Healthy Nuclei (%)?
74

----------
system: HEK-293T; assay: Multiplex assay against HEK293T; format: toxicity, cell-based; conditions: human, 24 h, 10 µM, compound concentration 10 uM, replicate 2
Reported Population Normal (%) by item:
Numeric only. Scale: %

Cc1ccccc1C(=O)Nc1ccc(C(=O)N2CCCC(N(C)C)c3ccccc32)cc1.Cl (centres undefined); 85

Lab note: need Population Normal (%) for CCCN1CCC[C@@H]2Cc3n[nH]cc3C[C@H]21.Cl [QUINPIROLE HYDROCHLORIDE] on HEK-293T, anyone have it?
97

Lab note: need Population Normal (%) for O=S(=O)(c1ccccc1)c1cnc2c(N3CCNCC3)cccc2c1 [INTEPIRDINE] on HEK-293T, anyone have it?
95

Lab note: need Population Normal (%) for "CCOc1c2c(c(OCC)c3ncccc13)CN(c1ccc(CS(=O)(=O)NC(=O)Cc3ccccc3OC)cc1C)C2=O" on HEK-293T, anyone have it?
91

Lab note: need Population Normal (%) for "Cc1ccc(/C(=C\CN2CCCC2)c2ccccn2)cc1" on HEK-293T, anyone have it?
95

Lab note: need Population Normal (%) for "CN(C)CCCc1cc(C(=O)Nc2ccc(-c3ccncc3)cc2)ccc1O.Cl.Cl" on HEK-293T, anyone have it?
84

Lab note: need Population Normal (%) for Cl.Clc1ccc2nsnc2c1NC1=NCCN1 [TIZANIDINE HYDROCHLORIDE] on HEK-293T, anyone have it?
93

Lab note: need Population Normal (%) for "Cc1ccc(F)cc1C(=O)Nc1ccc(C(=O)N2Cc3cccn3Cc3ccccc32)c(Cl)c1" on HEK-293T, anyone have it?
93

Lab note: need Population Normal (%) for "CC(C)(C)c1ccc(S(=O)(=O)Nc2ccc(Cl)cc2C(=O)c2cc[n+]([O-])cc2)cc1" on HEK-293T, anyone have it?
94
